Biological target: T1, human IFNAR-1 protein (form not stated) (human, UniProt P17181 28-436, limits assumed)
T1 construct: bispecific ELISA
T1 sequence (looked up): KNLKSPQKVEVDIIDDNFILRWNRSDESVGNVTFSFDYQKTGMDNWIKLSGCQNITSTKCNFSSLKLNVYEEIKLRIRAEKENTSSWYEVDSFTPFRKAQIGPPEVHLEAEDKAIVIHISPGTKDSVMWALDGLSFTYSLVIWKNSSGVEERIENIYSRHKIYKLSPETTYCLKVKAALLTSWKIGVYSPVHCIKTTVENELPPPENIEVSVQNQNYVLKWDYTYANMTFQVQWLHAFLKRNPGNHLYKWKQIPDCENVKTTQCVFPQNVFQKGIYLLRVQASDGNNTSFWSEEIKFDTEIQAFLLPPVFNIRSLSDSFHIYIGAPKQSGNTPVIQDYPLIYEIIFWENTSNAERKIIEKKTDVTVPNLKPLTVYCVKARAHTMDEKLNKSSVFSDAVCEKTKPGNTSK
Experiment: affinity ranking of expressed humanized 485G10 IgGs (method not named)
What Kd was measured for each of the following?
Form entry: value (nM) — number only.

Assign Kd to the following record: 485G10 humanized VH1 + VL1 (antibody, V domains shown, Humanized IgG expressed in HEK293; also called VH1 + VL1 (485G10)) VH: QVQLVQSGAEVKKPGASVKVSCKASGFNIKDYYIHWVRQAPGQGLEWMGRIDPEDAETKYAPKFQGRVTMTADTSISTAYMELSRLRSDDTVVYYCARYHGYWALDYWGQGTLVTVSS VL: DIQMTQSPSSLSASVGDRVTITCKTSQNVGTNVAWFQQKPGKAPKSLIYSTSYRYSGVPSRFSGSGSGTDFTLTISSLQPEDFATYYCHQYFSYPYTFGPGTKVDIK
3.14

Assign Kd to the following record: 485G10 humanized VH2 + VL2 (antibody, V domains shown, Humanized IgG expressed in HEK293; also called VH2 + VL2 (485G10)) VH: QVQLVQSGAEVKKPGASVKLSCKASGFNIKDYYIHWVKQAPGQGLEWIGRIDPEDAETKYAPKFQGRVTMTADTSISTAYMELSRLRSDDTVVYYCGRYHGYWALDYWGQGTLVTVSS VL: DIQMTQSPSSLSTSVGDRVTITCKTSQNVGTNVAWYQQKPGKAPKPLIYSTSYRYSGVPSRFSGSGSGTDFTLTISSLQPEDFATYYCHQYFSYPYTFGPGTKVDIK
0.906
